measurement.target: UniProtKB P29320
Sequence (P29320 21-983): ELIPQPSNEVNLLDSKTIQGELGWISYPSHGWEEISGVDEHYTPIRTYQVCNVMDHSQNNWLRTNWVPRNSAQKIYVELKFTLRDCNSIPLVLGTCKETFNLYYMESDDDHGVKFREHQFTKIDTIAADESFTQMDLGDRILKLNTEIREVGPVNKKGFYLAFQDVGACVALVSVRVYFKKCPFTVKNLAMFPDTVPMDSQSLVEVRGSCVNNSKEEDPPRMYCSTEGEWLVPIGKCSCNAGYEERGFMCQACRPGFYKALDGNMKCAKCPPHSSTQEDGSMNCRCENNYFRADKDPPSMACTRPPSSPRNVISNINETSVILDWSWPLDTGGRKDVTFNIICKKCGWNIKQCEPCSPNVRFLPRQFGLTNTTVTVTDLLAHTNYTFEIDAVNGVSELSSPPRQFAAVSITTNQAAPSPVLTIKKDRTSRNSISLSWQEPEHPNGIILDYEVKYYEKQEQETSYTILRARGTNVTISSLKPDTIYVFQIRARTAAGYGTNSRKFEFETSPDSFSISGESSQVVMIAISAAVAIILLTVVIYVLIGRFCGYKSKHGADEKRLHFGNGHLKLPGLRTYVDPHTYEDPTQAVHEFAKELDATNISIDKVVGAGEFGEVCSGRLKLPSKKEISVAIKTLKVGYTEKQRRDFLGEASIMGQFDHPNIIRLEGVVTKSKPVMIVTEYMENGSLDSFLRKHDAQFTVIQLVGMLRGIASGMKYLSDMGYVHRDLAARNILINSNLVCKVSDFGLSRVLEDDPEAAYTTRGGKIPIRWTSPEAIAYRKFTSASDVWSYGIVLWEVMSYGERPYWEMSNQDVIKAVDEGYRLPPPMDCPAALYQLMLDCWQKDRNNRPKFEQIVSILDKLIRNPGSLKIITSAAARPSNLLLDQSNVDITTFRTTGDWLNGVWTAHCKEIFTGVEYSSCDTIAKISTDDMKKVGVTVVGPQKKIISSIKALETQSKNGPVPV
experimental.readout: IC50

Consider the compound shown here: COc1cc2c(Oc3ccc(NC(=O)C4(C(=O)Nc5ccc(F)cc5)CC4)cc3)ccnc2cc1OC(=O)N1CCN(C)CC1 [Compound 1-10] What is its recorded IC50? 0.1 to 1 µM

----------
measurement.target: FLT3 (Homo sapiens, UniProt P36888)
Sequence (P36888 27-993): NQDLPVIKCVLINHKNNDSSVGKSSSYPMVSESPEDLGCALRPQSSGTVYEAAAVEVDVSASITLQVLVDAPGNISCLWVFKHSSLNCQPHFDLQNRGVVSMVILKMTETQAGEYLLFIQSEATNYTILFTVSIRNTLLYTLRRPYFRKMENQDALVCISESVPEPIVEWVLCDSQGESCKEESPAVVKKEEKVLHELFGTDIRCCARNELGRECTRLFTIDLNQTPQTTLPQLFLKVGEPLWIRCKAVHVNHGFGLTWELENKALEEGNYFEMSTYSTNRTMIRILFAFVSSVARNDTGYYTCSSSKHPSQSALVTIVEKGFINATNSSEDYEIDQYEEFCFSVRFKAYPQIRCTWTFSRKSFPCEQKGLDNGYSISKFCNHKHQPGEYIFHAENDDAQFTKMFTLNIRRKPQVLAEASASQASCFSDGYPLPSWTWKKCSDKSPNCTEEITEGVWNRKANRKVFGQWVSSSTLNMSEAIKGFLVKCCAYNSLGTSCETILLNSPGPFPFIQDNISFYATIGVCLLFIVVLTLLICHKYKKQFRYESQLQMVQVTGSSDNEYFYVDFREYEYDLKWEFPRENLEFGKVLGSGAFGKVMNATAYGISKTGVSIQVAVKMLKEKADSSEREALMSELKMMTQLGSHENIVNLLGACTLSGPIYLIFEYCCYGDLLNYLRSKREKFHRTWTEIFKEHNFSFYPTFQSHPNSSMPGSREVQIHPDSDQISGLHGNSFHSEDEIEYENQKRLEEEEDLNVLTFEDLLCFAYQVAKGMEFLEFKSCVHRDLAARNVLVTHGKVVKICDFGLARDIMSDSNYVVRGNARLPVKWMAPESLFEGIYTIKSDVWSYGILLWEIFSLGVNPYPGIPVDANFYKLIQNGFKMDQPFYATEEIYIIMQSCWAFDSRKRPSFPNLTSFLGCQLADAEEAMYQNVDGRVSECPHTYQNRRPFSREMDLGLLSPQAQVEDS
experimental.readout: IC50

Consider the molecule shown here: COc1cc2c(Oc3ccc(NC(=O)C4(C(=O)Nc5ccc(F)cc5)CC4)cc3)ccnc2cc1OC(=O)N1CCN(C)CC1 What is its recorded IC50? < 0.1 µM

Cited source: patent US11358949B2
